Molecular target: PrP^Sc in ScN2a cells (Mus musculus, UniProt P04925)
Sequence (P04925 23-230 limits assumed): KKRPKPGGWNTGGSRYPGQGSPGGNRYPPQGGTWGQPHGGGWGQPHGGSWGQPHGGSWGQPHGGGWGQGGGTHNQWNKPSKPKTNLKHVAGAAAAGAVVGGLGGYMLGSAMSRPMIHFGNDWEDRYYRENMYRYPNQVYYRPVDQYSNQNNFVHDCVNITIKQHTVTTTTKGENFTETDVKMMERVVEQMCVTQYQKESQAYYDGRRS
Test: cell-based
READOUT NAME: EC50 (µM)
Answer format: numeric, µM implied, no suffix.

Readout EC50 for CN(C)CCCN1c2ccccc2CCc2ccccc21 , test system PrP^Sc in ScN2a cells (Mus musculus, UniProt P04925), was 5.5
